Test system: S. aureus ATCC 25923
Assay type: cell-based, Staphylococcus aureus
Bridge positions count the residues as written; N and C are the ends. Square brackets hold non-standard residues; d marks the D form. Peptide text beside a SMILES is read from it.
MIC S. aureus ATCC 25923: recorded values
// return numeric value only (unit: µM, not printed)

>>> quantitative_readout("CC[C@H](C)[C@H](NC(=O)[C@H](CCCNC(=N)N)NC(=O)[C@@H]1CCC(=O)NCCCC[C@H](NC(=O)[C@H](Cc2ccccc2)NC(=O)[C@H](Cc2c[nH]c3ccccc23)NC(=O)[C@@H]2CCCN2C(=O)[C@@H](NC(=O)[C@@H](N)Cc2ccccc2)C(C)C)C(=O)N[C@@H](CCCCN)C(=O)N[C@@H](Cc2ccccc2)C(=O)N[C@H](CC(C)C)C(=O)N1)C(=O)N[C@@H](CC(C)C)C(N)=O [compound 12] (H-FVPWFKKF[dL]ERIL-NH2; lactam 6-10)")
3.12

With those in mind, consider the next compound.
MIC S. aureus ATCC 25923 recorded for this compound, CC[C@H](C)[C@H](NC(=O)[C@H](CCCNC(=N)N)NC(=O)[C@@H]1CSSC[C@H](NC(=O)[C@H](Cc2ccccc2)NC(=O)[C@H](Cc2c[nH]c3ccccc23)NC(=O)[C@@H]2CCCN2C(=O)[C@@H](NC(=O)[C@@H](N)Cc2ccccc2)C(C)C)C(=O)N[C@@H](CCCCN)C(=O)N[C@@H](Cc2ccccc2)C(=O)N[C@H](CC(C)C)C(=O)N1)C(=O)N[C@@H](CC(C)C)C(N)=O [compound 26] (H-FVPWFCKF[dL]CRIL-NH2; disulfide 6-10) , is 100

---

Test: CD spectroscopy, secondary structure content (DichroWeb)
Assay type: physicochemical
Details: CD in SDS micelles (20 mM), peptide 50 μM, 25 °C, DichroWeb
Bridge positions count the residues as written; N and C are the ends. Square brackets hold non-standard residues; d marks the D form. Peptide text beside a SMILES is read from it.
MEASURED PARAMETER: helix-1 (regular α-helix) (%)
// return numeric value only (unit: %, not printed)

Consider the following illustrative entries.
>>> quantitative_readout("CC[C@H](C)[C@H](NC(=O)[C@H](CCCNC(=N)N)NC(=O)[C@@H]1CCC(=O)NCCCC[C@H](NC(=O)[C@H](Cc2ccccc2)NC(=O)[C@H](Cc2c[nH]c3ccccc23)NC(=O)[C@@H]2CCCN2C(=O)[C@@H](NC(=O)[C@@H](N)Cc2ccccc2)C(C)C)C(=O)N[C@@H](CCCCN)C(=O)N[C@@H](Cc2ccccc2)C(=O)N[C@H](CC(C)C)C(=O)N1)C(=O)N[C@@H](CC(C)C)C(N)=O [compound 12] (H-FVPWFKKF[dL]ERIL-NH2; lactam 6-10)")
58
>>> quantitative_readout("CC[C@H](C)[C@H](NC(=O)[C@H](CCCNC(=N)N)NC(=O)[C@]1(C)CCCC=CCCC[C@](C)(NC(=O)[C@H](Cc2ccccc2)NC(=O)[C@H](Cc2c[nH]c3ccccc23)NC(=O)[C@@H]2CCCN2C(=O)[C@@H](NC(=O)[C@@H](N)Cc2ccccc2)C(C)C)C(=O)N[C@@H](CCCCN)C(=O)N[C@@H](Cc2ccccc2)C(=O)N[C@H](CC(C)C)C(=O)N1)C(=O)N[C@@H](CC(C)C)C(N)=O [compound 25]")
41

helix-1 (regular α-helix) recorded for this compound, CC[C@H](C)[C@H](NC(=O)[C@H](CCCNC(=N)N)NC(=O)[C@@H]1CCCCn2cc(nn2)C[C@H](NC(=O)[C@H](Cc2ccccc2)NC(=O)[C@H](Cc2c[nH]c3ccccc23)NC(=O)[C@@H]2CCCN2C(=O)[C@@H](NC(=O)[C@@H](N)Cc2ccccc2)C(C)C)C(=O)N[C@@H](CCCCN)C(=O)N[C@@H](Cc2ccccc2)C(=O)NC(CC(C)C)C(=O)N1)C(=O)N[C@@H](CC(C)C)C(N)=O (stereo in doubt) [compound 17] , is 32

---

Assay: CD spectroscopy, secondary structure content (DichroWeb)
Format: physicochemical
Conditions: CD in SDS micelles (20 mM), peptide 50 μM, 25 °C, DichroWeb
Bridge positions count the residues as written; N and C are the ends. Square brackets hold non-standard residues; d marks the D form. Peptide text beside a SMILES is read from it.
MEASURED PARAMETER: β-strand-2 (distorted β-strand) (%)
// return numeric value only (unit: %, not printed)

Consider the following illustrative entries.
>>> quantitative_readout("CC[C@H](C)[C@H](NC(=O)[C@H](CCCNC(=N)N)NC(=O)[C@]1(C)CCCC=CCCC[C@](C)(NC(=O)[C@H](Cc2ccccc2)NC(=O)[C@H](Cc2c[nH]c3ccccc23)NC(=O)[C@@H]2CCCN2C(=O)[C@@H](NC(=O)[C@@H](N)Cc2ccccc2)C(C)C)C(=O)N[C@@H](CCCCN)C(=O)N[C@@H](Cc2ccccc2)C(=O)N[C@H](CC(C)C)C(=O)N1)C(=O)N[C@@H](CC(C)C)C(N)=O")
4
>>> quantitative_readout("CC[C@H](C)[C@H](NC(=O)[C@H](CCCNC(=N)N)NC(=O)[C@@H]1CCCCNC(=O)CC[C@H](NC(=O)[C@H](Cc2ccccc2)NC(=O)[C@H](Cc2c[nH]c3ccccc23)NC(=O)[C@@H]2CCCN2C(=O)[C@@H](NC(=O)[C@@H](N)Cc2ccccc2)C(C)C)C(=O)N[C@@H](CCCCN)C(=O)N[C@@H](Cc2ccccc2)C(=O)N[C@H](CC(C)C)C(=O)N1)C(=O)N[C@@H](CC(C)C)C(N)=O [compound 24] (H-FVPWFEKF[dL]KRIL-NH2; lactam 6-10)")
5

β-strand-2 (distorted β-strand) recorded for this molecule, CC[C@H](C)[C@H](NC(=O)[C@H](CCCNC(=N)N)NC(=O)[C@@H]1CCC(=O)NCCCC[C@H](NC(=O)[C@H](Cc2ccccc2)NC(=O)[C@H](Cc2c[nH]c3ccccc23)NC(=O)[C@@H]2CCCN2C(=O)[C@@H](NC(=O)[C@@H](N)Cc2ccccc2)C(C)C)C(=O)N[C@@H](CCCCN)C(=O)N[C@@H](Cc2ccccc2)C(=O)N[C@H](CC(C)C)C(=O)N1)C(=O)N[C@@H](CC(C)C)C(N)=O [compound 12] (H-FVPWFKKF[dL]ERIL-NH2; lactam 6-10) , is 3

β-strand-2 (distorted β-strand) recorded for this molecule, CC[C@H](C)[C@H](NC(=O)[C@H](CCCNC(=N)N)NC(=O)[C@@H]1CCCCn2cc(nn2)C[C@H](NC(=O)[C@H](Cc2ccccc2)NC(=O)[C@H](Cc2c[nH]c3ccccc23)NC(=O)[C@@H]2CCCN2C(=O)[C@@H](NC(=O)[C@@H](N)Cc2ccccc2)C(C)C)C(=O)N[C@@H](CCCCN)C(=O)N[C@@H](Cc2ccccc2)C(=O)NC(CC(C)C)C(=O)N1)C(=O)N[C@@H](CC(C)C)C(N)=O (stereo in doubt) , is 7

---

Test: CD spectroscopy, secondary structure content (DichroWeb)
Assay type: physicochemical
Settings: CD in water, peptide 50 μM, 25 °C, DichroWeb
MEASURED PARAMETER: β-strand-1 (regular β-strand) (%)
// return numeric value only (unit: %, not printed)

β-strand-1 (regular β-strand) recorded for this molecule, CC[C@H](C)[C@H](NC(=O)[C@H](CCCNC(=N)N)NC(=O)[C@@H]1CCCCn2cc(nn2)C[C@H](NC(=O)[C@H](Cc2ccccc2)NC(=O)[C@H](Cc2c[nH]c3ccccc23)NC(=O)[C@@H]2CCCN2C(=O)[C@@H](NC(=O)[C@@H](N)Cc2ccccc2)C(C)C)C(=O)N[C@@H](CCCCN)C(=O)N[C@@H](Cc2ccccc2)C(=O)NC(CC(C)C)C(=O)N1)C(=O)N[C@@H](CC(C)C)C(N)=O (stereo in doubt) [compound 17] , is 19

---

β-strand-2 (distorted β-strand): recorded values
Experiment: CD spectroscopy, secondary structure content (DichroWeb)
Assay type: physicochemical
Conditions: CD in DPC micelles (20 mM), peptide 50 μM, 25 °C, DichroWeb
Bridge positions count the residues as written; N and C are the ends. Square brackets hold non-standard residues; d marks the D form. Peptide text beside a SMILES is read from it.
// return numeric value only (unit: %, not printed)

Consider the following illustrative entries.
>>> quantitative_readout("CC[C@H](C)[C@H](NC(=O)[C@H](CCCNC(=N)N)NC(=O)[C@@H]1CCC(=O)NCCCC[C@H](NC(=O)[C@H](Cc2ccccc2)NC(=O)[C@H](Cc2c[nH]c3ccccc23)NC(=O)[C@@H]2CCCN2C(=O)[C@@H](NC(=O)[C@@H](N)Cc2ccccc2)C(C)C)C(=O)N[C@@H](CCCCN)C(=O)N[C@@H](Cc2ccccc2)C(=O)N[C@H](CC(C)C)C(=O)N1)C(=O)N[C@@H](CC(C)C)C(N)=O [compound 12] (H-FVPWFKKF[dL]ERIL-NH2; lactam 6-10)")
4
>>> quantitative_readout("CC[C@H](C)[C@H](NC(=O)[C@H](CCCNC(=N)N)NC(=O)[C@@H]1CCCCn2cc(nn2)C[C@H](NC(=O)[C@H](Cc2ccccc2)NC(=O)[C@H](Cc2c[nH]c3ccccc23)NC(=O)[C@@H]2CCCN2C(=O)[C@@H](NC(=O)[C@@H](N)Cc2ccccc2)C(C)C)C(=O)N[C@@H](CCCCN)C(=O)N[C@@H](Cc2ccccc2)C(=O)NC(CC(C)C)C(=O)N1)C(=O)N[C@@H](CC(C)C)C(N)=O (stereo in doubt)")
7
>>> quantitative_readout("CC[C@H](C)[C@H](NC(=O)[C@H](CCCNC(=N)N)NC(=O)[C@@H]1CCCCNC(=O)CC[C@H](NC(=O)[C@H](Cc2ccccc2)NC(=O)[C@H](Cc2c[nH]c3ccccc23)NC(=O)[C@@H]2CCCN2C(=O)[C@@H](NC(=O)[C@@H](N)Cc2ccccc2)C(C)C)C(=O)N[C@@H](CCCCN)C(=O)N[C@@H](Cc2ccccc2)C(=O)N[C@H](CC(C)C)C(=O)N1)C(=O)N[C@@H](CC(C)C)C(N)=O [compound 24] (H-FVPWFEKF[dL]KRIL-NH2; lactam 6-10)")
3

β-strand-2 (distorted β-strand) recorded for this compound, `CC[C@H](C)[C@H](NC(=O)[C@H](CCCNC(=N)N)NC(=O)[C@]1(C)CCCC=CCCC[C@](C)(NC(=O)[C@H](Cc2ccccc2)NC(=O)[C@H](Cc2c[nH]c3ccccc23)NC(=O)[C@@H]2CCCN2C(=O)[C@@H](NC(=O)[C@@H](N)Cc2ccccc2)C(C)C)C(=O)N[C@@H](CCCCN)C(=O)N[C@@H](Cc2ccccc2)C(=O)N[C@H](CC(C)C)C(=O)N1)C(=O)N[C@@H](CC(C)C)C(N)=O` , is 7

Origin of measurements: paper PMC8389922
